# Lookup of reported pEC50 keyed by entry
- Target system: Protein arginine N-methyltransferase 5 (Homo sapiens)
- Test: Inhibition of PRMT5 in human Z138 cells assessed as decrease in di-methyl arginine levels after 96 hrs by Western blot method
pEC50: −log10 of the molar value.

O=C1NCc2ccc(-c3cccc(OCC(O)CN4CCc5ccccc5C4)c3)cc21 (stereo not given); 5.00 to 6.00
O=C(COc1ccccc1F)NCC(O)CN1CCc2ccccc2C1 (stereo not given); 6.00 to 7.00
OC(COc1ccc(C2CCCNC2)cc1)CN1CCc2ccccc2C1 (stereo not given); 6.00 to 7.00
O=C(COc1ccccc1N1CCOCC1)NCC(O)CN1CCc2ccccc2C1 (stereo not given); 6.00 to 7.00

From here, focus on the item given below.
Input line: Report pEC50 for O=C(Cn1cnc2ccc(-c3cccc(OCC(O)CN4CCc5ccccc5C4)c3)cc21)N1CCCCC1 (stereo not given) please.
Output line: 6.00 to 7.00

---

- Target system: UniProt O14744
- Test: Inhibition of PRMT5 in human Z138 cells assessed as decrease in di-methyl arginine levels after 96 hrs by Western blot method
pEC50: −log10 of the molar value.
Parameter measured: pEC50

The cases that follow already have their pEC50 on record.
O=C(Cn1ccc2cnc(-c3ccnc(NCC(O)CN4CCc5ccccc5C4)c3)nc21)N1CCOCC1 (stereo unspecified); > 7.00
Cc1cccc(OCC(=O)NCC(O)CN2CCc3ccccc3C2)c1 (stereo unspecified); 6.00 to 7.00
CC(=O)Nc1cccc(-c2cccc(OCC(O)CN3CCc4ccccc4C3)c2)c1 (stereo unspecified); 6.00 to 7.00
O=C(NCC(O)CN1CCc2ccccc2C1)c1cccc(NC2CCOC2)c1 (stereo unspecified); 6.00 to 7.00
Cn1cnc2ccc(-c3cncc(NCC(O)CN4CCc5ccccc5C4)n3)cc21 (stereo unspecified); 6.00 to 7.00

From here, focus on the item given below.
Input line: Give the reported pEC50 for CS(=O)(=O)Nc1ccc(C(=O)NCC(O)CN2CCc3ccccc3C2)cc1 (stereo unspecified) (system: UniProt O14744).
Output line: 6.00 to 7.00

---

- Target system: PRMT5/MEP50 complex (Homo sapiens)
- Sequence (O14744 whole entry, the tested form may be a part): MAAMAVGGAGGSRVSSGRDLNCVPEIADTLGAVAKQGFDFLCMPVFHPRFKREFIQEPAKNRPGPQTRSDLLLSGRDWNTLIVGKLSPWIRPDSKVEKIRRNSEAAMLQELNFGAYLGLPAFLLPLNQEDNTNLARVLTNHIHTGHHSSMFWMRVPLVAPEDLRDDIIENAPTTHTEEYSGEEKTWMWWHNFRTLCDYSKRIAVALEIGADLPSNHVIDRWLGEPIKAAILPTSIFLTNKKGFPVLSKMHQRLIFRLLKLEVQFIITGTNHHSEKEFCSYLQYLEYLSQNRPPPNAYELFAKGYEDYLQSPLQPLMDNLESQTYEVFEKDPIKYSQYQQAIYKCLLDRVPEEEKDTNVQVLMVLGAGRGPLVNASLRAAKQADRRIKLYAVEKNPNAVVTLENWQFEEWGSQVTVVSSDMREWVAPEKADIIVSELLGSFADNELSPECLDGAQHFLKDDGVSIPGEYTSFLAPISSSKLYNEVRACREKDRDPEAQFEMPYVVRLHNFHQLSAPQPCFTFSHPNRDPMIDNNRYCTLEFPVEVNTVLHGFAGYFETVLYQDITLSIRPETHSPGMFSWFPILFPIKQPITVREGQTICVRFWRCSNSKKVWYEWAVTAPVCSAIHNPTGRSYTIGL
- Sequence (Q9BQA1 whole entry, further chain, the tested form may be a part): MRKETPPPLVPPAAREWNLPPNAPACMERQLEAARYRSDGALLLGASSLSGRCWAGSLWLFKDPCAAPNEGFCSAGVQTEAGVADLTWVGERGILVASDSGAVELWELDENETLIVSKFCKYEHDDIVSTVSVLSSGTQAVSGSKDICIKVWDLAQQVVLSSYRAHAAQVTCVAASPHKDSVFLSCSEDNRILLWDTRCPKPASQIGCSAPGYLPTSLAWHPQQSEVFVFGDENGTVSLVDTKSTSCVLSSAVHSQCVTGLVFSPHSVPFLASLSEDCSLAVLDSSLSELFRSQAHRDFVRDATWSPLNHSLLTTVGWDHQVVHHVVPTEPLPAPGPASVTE
- Test: Inhibition of recombinant human fetal brain FLAG-tagged PRMT5/full length human testis 6His-tagged MEP50 expressed in baculovirus infected insect Sf9 cells using human histone H4 (1 to 15 residues) as substrate preincubated for 30 mins followed by [3H]-SAM addition
pIC50: −log10 of the molar value.
Parameter measured: pIC50

Cn1cnc2ccc(-c3cccc(OCC(O)CN4CCc5ccccc5C4)c3)cc21 (stereo unspecified); > 7.00
CN(Cc1ccc(OCC(O)CN2CCc3ccccc3C2)cc1)C1CCCC1 (stereo unspecified); 5.00 to 6.00
CS(=O)(=O)c1ccc(OCC(=O)NCC(O)CN2CCc3ccccc3C2)cc1 (stereo unspecified); 5.00 to 6.00
Cn1cnc2ccc(-c3cccc(OCC(O)CN4CCc5ccccc5C4=O)c3)cc21 (stereo unspecified); < 4.40

Input line: Report pIC50 for OC(CNc1cc(-c2ncc3ccn(C4CCNCC4)c3n2)ccn1)CN1CCc2ccccc2C1 (stereo unspecified) please.
Output line: > 7.00

Input line: Report pIC50 for O[C@@H](COc1cccc(-c2cccc3cccnc23)c1)CN1CCc2ccccc2C1 please.
Output line: > 7.00

Input line: Report pIC50 for O=C(COc1ccccc1N1CCOCC1)NC[C@@H](O)CN1CCc2ccccc2C1 please.
Output line: 6.00 to 7.00

Input line: Report pIC50 for OC(COc1cccc(-c2cc(Cl)cc(C(F)(F)F)c2)c1)CN1CCc2ccccc2C1 (stereo unspecified) please.
Output line: 5.00 to 6.00

Input line: Report pIC50 for OC(COc1cccc2ccc(N3CCOCC3)nc12)CN1CCc2ccccc2C1 (stereo unspecified) please.
Output line: 5.00 to 6.00

Input line: Report pIC50 for COc1ccc(Cn2nccc2-c2ccc(OC[C@H](O)CN3CCc4ccccc4C3)cc2)cc1 please.
Output line: 5.00 to 6.00

Input line: Report pIC50 for Oc1cccc(-c2cccc(OCC(O)CN3CCc4ccccc4C3)c2)c1 (stereo unspecified) please.
Output line: 6.00 to 7.00

Input line: Report pIC50 for CS(=O)(=O)c1ccccc1OCC(=O)NCC(O)CN1Cc2ccccc2C1 (stereo unspecified) please.
Output line: 6.00 to 7.00

---

- Target system: Protein arginine N-methyltransferase 5 (Homo sapiens, UniProt O14744)
- Test: Inhibition of PRMT5 in human Z138 cells assessed as decrease in di-methyl arginine levels after 96 hrs by Western blot method
# Lookup of reported EC50 keyed by entry

The cases that follow already have their EC50 on record.
CS(=O)(=O)Nc1ccccc1OCC(=O)NCC(O)CN1CCc2ccccc2C1 (stereo unspecified); 0.101 to 1 µM
CN1CC(n2cnc3ccc(-c4cccc(OCC(O)CN5CCc6ccccc6C5)c4)cc32)C1 (stereo unspecified); 0.101 to 1 µM
O=C(COc1cccc2ccccc12)NCC(O)CN1CCc2ccccc2C1 (stereo unspecified); 0.101 to 1 µM
CN1CCN(c2ccccc2OCC(=O)NC[C@H](O)CN2CCc3ccccc3C2)CC1; 0.101 to 1 µM
CC(C)(Oc1cccc2cccnc12)C(=O)NCC(O)CN1CCc2ccccc2C1 (stereo unspecified); 0.101 to 1 µM
O=C(COc1cccc2c1OCCO2)NCC(O)CN1CCc2ccccc2C1 (stereo unspecified); < 0.1 µM

Input line: Give the reported EC50 for CC(=O)N1CCc2c(cccc2OCC(=O)NCC(O)CN2CCc3ccccc3C2)C1 (stereo unspecified) (system: Protein arginine N-methyltransferase 5 (Homo sapiens, UniProt O14744)).
Output line: < 0.1 µM

Input line: Give the reported EC50 for O=C(COc1ccccc1C1CCCNC1)NCC(O)CN1CCc2ccccc2C1 (stereo unspecified) (system: Protein arginine N-methyltransferase 5 (Homo sapiens, UniProt O14744)).
Output line: 0.101 to 1 µM

Input line: Give the reported EC50 for Cn1nccc1-c1cccc(C(=O)NCC(O)CN2CCc3ccccc3C2)c1 (stereo unspecified) (system: Protein arginine N-methyltransferase 5 (Homo sapiens, UniProt O14744)).
Output line: < 0.1 µM

Input line: Give the reported EC50 for CNC(=O)Cn1ccc2cnc(-c3ccnc(NCC(O)CN4CCc5ccccc5C4)c3)nc21 (stereo unspecified) (system: Protein arginine N-methyltransferase 5 (Homo sapiens, UniProt O14744)).
Output line: 0.101 to 1 µM

Input line: Give the reported EC50 for OC(CNc1cccc(CNC2CCCC2)c1)CN1CCc2ccccc2C1 (stereo unspecified) (system: Protein arginine N-methyltransferase 5 (Homo sapiens, UniProt O14744)).
Output line: 1 to 10 µM

Input line: Give the reported EC50 for Cn1cc2ccc(-c3cccc(OCC(O)CN4CCc5ccccc5C4)c3)nc2n1 (stereo unspecified) (system: Protein arginine N-methyltransferase 5 (Homo sapiens, UniProt O14744)).
Output line: 0.101 to 1 µM

---

# Lookup of reported pEC50 keyed by entry
- Target system: UniProtKB O14744
- Test: Inhibition of PRMT5 in human Z138 cells assessed as decrease in di-methyl arginine levels after 96 hrs by Western blot method
pEC50: −log10 of the molar value.

CN(C)c1ccc(-c2cccc(OCC(O)CN3CCc4ccccc4C3)c2)cc1 (configuration not stated); 5.00 to 6.00
Cc1ncc2ccc(-c3cccc(OCC(O)CN4CCc5ccccc5C4)c3)cn12 (configuration not stated); 5.00 to 6.00
O=C1Cc2ccccc2N1CC(O)CN1CCc2ccccc2C1 (configuration not stated); 6.00 to 7.00
OC(CNc1cc(-c2ncc3ccn(C4CNC4)c3n2)ccn1)CN1CCc2ccccc2C1 (configuration not stated); 6.00 to 7.00
OC(COc1cccc(-c2ccc3[nH]ncc3c2)c1)CN1CCc2ccccc2C1 (configuration not stated); 5.00 to 6.00
O=C(Nc1cccc(OCC(O)CN2CCc3ccccc3C2)c1)c1cccnn1 (configuration not stated); 5.00 to 6.00
Cc1ccc(N2CCN(CC(O)CN3CCc4ccccc4C3)C(=O)C2)cc1 (configuration not stated); 6.00 to 7.00
Cn1cnc2cnc(-c3cccc(OCC(O)CN4CCc5ccccc5C4)c3)nc21 (configuration not stated); 6.00 to 7.00
CC(=O)c1cccc(-c2cccc(OCC(O)CN3CCc4ccccc4C3)c2)c1 (configuration not stated); 5.00 to 6.00
O=C(Nc1cccc(OCC(O)CN2CCc3ccccc3C2)c1)c1cnccn1 (configuration not stated); 5.00 to 6.00

Input line: Report pEC50 for OC(COc1cccc(-c2ccc(C(F)(F)F)cc2C(F)(F)F)c1)CN1CCc2ccccc2C1 (configuration not stated) please.
Output line: 4.40 to 5.00

Input line: Report pEC50 for O=C(NCC(O)CN1CCc2ccccc2C1)c1cccc(-c2cc[nH]n2)c1 (configuration not stated) please.
Output line: 6.00 to 7.00

Input line: Report pEC50 for Cn1cnc(C(=O)Nc2cccc(OCC(O)CN3CCc4ccccc4C3)c2)c1 (configuration not stated) please.
Output line: 5.00 to 6.00

Input line: Report pEC50 for CC(=O)Nc1ccc(OCC(=O)NCC(O)CN2CCc3ccccc3C2)cc1 (configuration not stated) please.
Output line: 6.00 to 7.00

Input line: Report pEC50 for OC(COc1cccc(-c2ccc3cn[nH]c3c2)c1)CN1CCc2ccccc2C1 (configuration not stated) please.
Output line: 5.00 to 6.00

Input line: Report pEC50 for OC(COc1cccc(-c2cnc3ccccc3c2)c1)CN1CCc2ccccc2C1 (configuration not stated) please.
Output line: 5.00 to 6.00

Input line: Report pEC50 for O=c1cc(Nc2ccccc2)ccn1C[C@@H](O)CN1CCc2ccccc2C1 please.
Output line: 6.00 to 7.00
